I'd be grateful if you could share measured Population Mitotic Cells (%) for these entries.
Test system: U2OS
Assay: Multiplex assay against U2OS
Format: toxicity, cell-based
Conditions: human, 24 h, 1 µM, compound concentration 1 uM, replicate 1
One number for each entry, in %.

Please review the following examples before continuing.
{"columns": ["COMPOUND", "TEST_SYSTEM", "Population Mitotic Cells (%)"],
 "data": [
  ["Nc1nc(-c2ccco2)c2cnn(Cc3ccccc3F)c2n1", "U2OS", 3],
  ["Cc1cc(NC(=O)NCCN2CCC(O)(Cc3ccccc3)CC2)c2ccccc2n1 [PALOSURAN]", "U2OS", 5]
]}

Your task in this section: give Population Mitotic Cells (%) for each listed record.
1. CCn1c(-c2nc3cc(C(=O)N4CCCC(N)C4)ccc3n2C)cc2ccccc21.Cl (centres undefined)
2. CN1CCN2c3ccccc3Cc3ccccc3C2C1.Cl (centres undefined) [MIANSERIN HYDROCHLORIDE]

Out:
1. 17
2. 11

----------
System: U2OS
Assay: Multiplex assay against U2OS
Type: toxicity, cell-based
Settings: human, 24 h, 1 µM, compound concentration 1 uM, replicate 2
VALUE_KIND: Total Cell Count
Give bare numbers.

{"columns": ["COMPOUND", "Total Cell Count"],
 "data": [
  ["O=C(O)CCC/C=C\\CC1C(O)CC(O)C1/C=C/C(O)COc1cccc(Cl)c1 (stereo not given)", 157]
]}

Your task in this section: give Total Cell Count for each listed record.
1. COc1cc2nc(N3CCN(C(=O)COc4c(OC)cccc4C(C)C)CC3)nc(N)c2cc1OC.Cl.Cl
2. CCc1nn2c(C)cc(C)nc2c1Cc1ccc(-c2nnc(C3CCNCC3)o2)cc1
3. Nc1nc(-c2ccco2)c2cnn(Cc3ccccc3F)c2n1
4. O=c1nc2[nH]c3ccccc3nc-2c(=O)[nH]1

Out:
1: 154; 2: 130; 3: 127; 4: 146

----------
Tested on: Fibroblast
Test: Multiplex assay against human fibroblast
Format: toxicity, cell-based
Conditions: 12 h, 10 µM, compound concentration 10 uM, replicate 1
I'd be grateful if you could share measured Population Tubulin-Different-Phenotype (%) for these entries.
Numbers only, in %.

Please review the following examples before continuing.
{"columns": ["COMPOUND", "REPORTED_VALUE"],
 "data": [
  ["CC(C)(C)c1ccc(CSc2cnn(C(C)(C)C)c(=O)c2Cl)cc1", 35],
  ["Cc1c(Cc2ccc3ccccc3n2)c2cc(F)ccc2n1CC(=O)O", 35],
  ["CN1CCC(C(=O)c2cccc(NC(=O)c3c(F)cc(F)cc3F)n2)CC1", 42],
  ["C=CCN1C[C@H](C(=O)N(CCCN(C)C)C(=O)NCC)C[C@@H]2c3cccc4[nH]cc(c34)C[C@H]21", 46],
  ["COc1cc2nc(N3CCN(C(=O)c4ccco4)CC3)nc(N)c2cc1OC.Cl [PRAZOSIN HYDROCHLORIDE]", 49],
  ["COc1ccc2[nH]c(I)c(CCNC(C)=O)c2c1", 20],
  ["O=c1nc2[nH]c3ccccc3nc-2c(=O)[nH]1", 23],
  ["COc1cc2nc(N3CCN(C(=O)COc4c(OC)cccc4C(C)C)CC3)nc(N)c2cc1OC.Cl.Cl", 63]
]}

Your task in this section: give Population Tubulin-Different-Phenotype (%) for each listed record.
1. COc1ccc2c(c1OCc1ccccc1)C[C@@H](C(=O)O)N(C(=O)C(c1ccccc1)c1ccccc1)C2
2. Cc1cc(=O)n(C)c2cc(N3C(=O)CC[C@H](NS(=O)(=O)CC(C)C)[C@H]3c3ccc(Cl)cc3)ccc12
3. CC(C)C[C@H](CO)Nc1nc(S[C@@H](C)c2ccccc2)nc2nc(N)sc12
4. Nc1nc(-c2ccco2)c2cnn(Cc3ccccc3F)c2n1

Out:
1: 28; 2: 86; 3: 46; 4: 38

Your task in this section: give Population Tubulin-Different-Phenotype (%) for each listed record.
1. S=C(NCCCc1c[nH]cn1)NCCCN(Cc1ccc(Cl)c(Cl)c1)c1ccc(Br)cn1
2. COc1cc(Nc2ncc3c(n2)-c2ccc(Cl)cc2C(c2c(F)cccc2OC)=NC3)ccc1C(=O)O
3. Cn1cc(C(=O)OCC2CCN(CCNS(C)(=O)=O)CC2)c2ccccc21
4. O=C(O)CCC/C=C\CC1C(O)CC(O)C1/C=C/C(O)COc1cccc(Cl)c1 (stereo not drawn)

Out:
1: 89; 2: 69; 3: 41; 4: 31

Your task in this section: give Population Tubulin-Different-Phenotype (%) for each listed record.
1. Cc1cc(O)c(-c2ccc([C@@H](C)CN(C)C)cc2)c2c1[nH]c(=O)c1sccc12
2. CN(C)C/C=C/C(=O)Nc1ccc(C(=O)N2CCCC(Nc3ncc(Cl)c(-c4c[nH]c5ccccc45)n3)C2)cc1 (stereo not drawn)

Out:
90
77

// provenance: ChEMBL document CHEMBL5058577
